tgt: T1, USP38, Q8NB14
T1 chain: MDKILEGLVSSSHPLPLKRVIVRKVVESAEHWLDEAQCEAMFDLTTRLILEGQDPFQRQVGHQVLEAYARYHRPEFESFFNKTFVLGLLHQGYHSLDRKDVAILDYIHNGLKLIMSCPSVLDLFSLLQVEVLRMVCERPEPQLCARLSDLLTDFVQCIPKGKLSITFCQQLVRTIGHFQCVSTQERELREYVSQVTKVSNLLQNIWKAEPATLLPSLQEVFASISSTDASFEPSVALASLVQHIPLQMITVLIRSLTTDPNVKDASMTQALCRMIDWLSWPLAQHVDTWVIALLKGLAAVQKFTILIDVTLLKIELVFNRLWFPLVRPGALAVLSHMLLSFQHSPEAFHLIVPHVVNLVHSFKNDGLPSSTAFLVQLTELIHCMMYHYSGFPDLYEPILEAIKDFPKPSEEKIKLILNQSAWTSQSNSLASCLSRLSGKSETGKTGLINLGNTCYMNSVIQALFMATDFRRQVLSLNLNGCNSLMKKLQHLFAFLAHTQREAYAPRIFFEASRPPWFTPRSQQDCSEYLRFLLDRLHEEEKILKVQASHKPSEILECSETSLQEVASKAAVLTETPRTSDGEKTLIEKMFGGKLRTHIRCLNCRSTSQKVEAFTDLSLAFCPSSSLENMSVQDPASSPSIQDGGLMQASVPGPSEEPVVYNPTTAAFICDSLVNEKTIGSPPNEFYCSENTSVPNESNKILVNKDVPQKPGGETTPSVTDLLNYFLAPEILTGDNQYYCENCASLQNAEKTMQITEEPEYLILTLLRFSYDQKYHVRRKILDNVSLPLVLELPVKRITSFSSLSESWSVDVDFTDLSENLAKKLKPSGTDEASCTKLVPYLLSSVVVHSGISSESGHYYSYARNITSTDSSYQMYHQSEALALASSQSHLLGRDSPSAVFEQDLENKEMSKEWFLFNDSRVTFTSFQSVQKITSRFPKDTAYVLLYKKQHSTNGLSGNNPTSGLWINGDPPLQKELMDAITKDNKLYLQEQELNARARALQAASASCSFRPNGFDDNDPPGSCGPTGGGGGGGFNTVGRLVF
assay details: median log2 fold change of GCK-ALFA target abundance (FLAG IP / Myc IP barcode read proportion) (log2 ratio); each designed protein is fused to an ALFA-tag nanobody in HEK293 cells to bring the named protein to FLAG-tagged glucokinase (GCK); Myc marks an untargeted standard; higher = target protein stabilised (more abundant)
condition info: target protein: 3xFLAG-MCP-GCK-ALFA reporter; HEK293 landing pad (RPLP)
measured property: median log2 fold change
Numbers only.

# annotated cases, reported median log2 fold change shown
usp_38_diff_out_18_31_437 (protein) SLREEAERVAEEARRLAEELKEKSKELKEAIKKGDKEKAEKLMEEMERLKEELGRAYLRLRDLAREDPSNRPLLKEVTKEANEAVDEYTEAEEAYFLFKA | -1.39
usp_38_diff_out_18_14_308 (protein) AEELAAAKKSNLESLKEEVKKYTERVIELLKKAKDDPERVKRIYERAQRDLEGVRTYAEEVLKEAEAAGDEETKAAAKELLKEIDEAKKKVEKAYKEVMA | -0.392
usp_38_diff_out_16_37_205 (protein) GEELLEEFRRFMEEAEREARRLAEEARELAEKGADIEEIERVLEELERLLDEVVERTTEVLEAVPEHADEILAEYDRAATTLAEAGKEIREKLREAKEKE | -0.436
usp_38_diff_out_14_2_97 (protein) GKEELEKKFKETKKVLEEAIKKAKELKKEVEKDPSKAEEARKKLFEAWDKAADKVGELQKLLEENPEYKELNKKIIEEVNKLLTELTKAALEALELIAEA | -0.467
usp_38_diff_out_2_113_468 (protein) DPEQKKEEAQLYKDIILEGADKLLELAKKGMLTPDRTKVMLGGIVHAAREAYELDPSVKPVIEEVIEKLEEIKELVKDKNPEIAKEIEEAIEELKKILEE | 0.211

Required: median log2 fold change, one value per binder below.
1. usp_38_diff_out_1_153_27 (protein) SELEELKKKIEEITKEAEKLKKEAEKLIKDGTATREKVDELADKLGKLAVELREIRSKAAESGEYYKKLKPLFKKAEKALNEAVDALNKAATLVFEKEAE
2. usp_38_diff_out_18_28_404 (protein) MMEEIQKKIEEAEKEADKLIDEYTKAATEAFLKYAEDPSATELVEAVNKAADALGEAAKAVNEMRRHKDDPEKVEKELKKFEEAKKKAEEALKEIKKLIA
3. usp_38_diff_out_14_2_93 (protein) GEEELKKLFEETKKVLEEAIKRAEELTKEVKADPSQAEKARKELFKAWDEAGDKVGELQKKIEENKEHKELNKKIIKEVNELITKLTEAALAALEEIAAA

Ans:
0.0209
-0.178
-0.0116

Data point: usp_38_diff_out_14_2_83 (protein) MEEEIKEKTKETLEEIEKAIKELKELEKEVKKDPSKKEEAYKKAFEKWDKAADKVGELEKLLRENKENPELNKKAKEEINEKLTKLTEEALKLLETIAEV ; median log2 fold change = -0.316
